Please go through the items and note down their Ratio of compound concentration in versus compound concentration out, MS-based assay.
# target-under-test: FUS-SNAP condensates (Homo sapiens, UniProt P35637)
# Sequence (P35637 whole entry): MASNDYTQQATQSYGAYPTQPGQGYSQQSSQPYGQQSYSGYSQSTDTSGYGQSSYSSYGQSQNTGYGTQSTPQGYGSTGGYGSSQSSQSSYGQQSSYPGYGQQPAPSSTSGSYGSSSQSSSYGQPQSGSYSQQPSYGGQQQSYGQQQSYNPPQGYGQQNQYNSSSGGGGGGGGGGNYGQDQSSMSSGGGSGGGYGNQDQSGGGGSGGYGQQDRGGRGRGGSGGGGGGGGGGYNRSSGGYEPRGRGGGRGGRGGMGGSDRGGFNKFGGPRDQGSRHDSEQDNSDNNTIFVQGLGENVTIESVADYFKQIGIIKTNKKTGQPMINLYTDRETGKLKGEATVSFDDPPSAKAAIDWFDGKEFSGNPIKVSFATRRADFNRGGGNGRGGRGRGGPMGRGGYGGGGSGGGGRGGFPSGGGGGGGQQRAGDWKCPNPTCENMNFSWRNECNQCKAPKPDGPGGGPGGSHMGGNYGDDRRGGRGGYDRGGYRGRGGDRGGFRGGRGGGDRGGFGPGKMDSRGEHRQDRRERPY
# experiment: Mass spectrometry-based depletion assay of compound partitioning
# Assay type: physicochemical
# condition-label: condensate volume fraction of 1/1000 used
Structures can show the parent of a compound that is named as a salt.

Entry under test: `O=C1OC2(c3ccc(O)cc3Oc3cc(O)ccc32)c2ccccc21` . Its Ratio of compound concentration in versus compound concentration out, MS-based assay was 1-100

Documented Ratio of compound concentration in versus compound concentration out, MS-based assay of `CCN(CC)c1ccc2c(-c3ccccc3C(=O)O)c3ccc(=[N+](CC)CC)cc-3oc2c1` : 666

Reported Ratio of compound concentration in versus compound concentration out, MS-based assay ( O=C([O-])c1ccccc1C1=c2cc3c4c(c2Oc2c1cc1c5c2CCCN5CCC1)CCC[N+]=4CCC3 [Dye 17, Rhodamine 101 inner salt] ) = >8,000

Ratio of compound concentration in versus compound concentration out, MS-based assay reading for `COC(=O)c1ccccc1-c1c2ccc(=N)cc-2oc2cc(N)ccc12.Cl` : 1-100

// Ratio of compound concentration in versus compound concentration out, MS-based assay lookup, molecule = `N#CC1=c2cc3c4c(c2Oc2c1cc1c5c2CCCN5CCC1)CCC[N+]=4CCC3` , result: >2,000
